Experiment: reduction of polyQ htt aggregates in cells – imaging, exon1htt(103Q)mCFP cells, high-content imaging, primary screen (AID 483);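 also: compound exposure lasted 3 days before fixation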
Conditions: exon1htt(103Q)mCFP cell line, aggregate imaging, at 2 µM
Active and inactive are the calls of the source.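 The calls were made as follows: active = visual image review flags a hit and inhibition of aggregation exceeds 20%; inconclusive = visual hit but inhibition at or below 20%; inactive = no hit on visual image review.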
Allowed answers: y for active, n for inactive

- CCN(CC)CCNC(=O)c1ccc(CS(=O)(=O)c2ccc(Br)cc2)o1: n
- Cc1ccc(S(=O)(=O)N2CCOCC(=O)NCCOCCNC(=O)COCC2)cc1: n
- CCOc1cc(-c2nc3ccccn3c2NCC2CCCO2)ccc1O (centres undefined): n

Query string: Could you check what this test reported for COc1cccc(C2C(C(=O)c3ccc(C)o3)=C(O)C(=O)N2CCCN(C)C)c1 (centres undefined) ?
Result string: y

Query string: Consider next the compound Cc1ccc(-c2nnc(N(C)C(=O)c3ccccn3)s2)cn1 in the same way.
Result string: n

Query string: Consider next the compound O=C(NC1CCCC1)C(c1ccco1)N(Cc1ccccc1)C(=O)c1csnn1 (centres undefined) in the same way.
Result string: n

----------
Test: inhibitors of TNFa-induced NFkB p65 translocation, primary screen, imaging, HUVEC, MLSMR starter and 10KST1 sets (AID 438);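 also: compound added about 3h40 before a 20 min TNFalpha stimulation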
Conditions: HUVEC TNFa-induced p65 nuclear translocation; measured here: nuclei count (cytotoxicity indicator), at 2.08 µM
Provide the recorded cell count for the entries that follow.
One number for each entry.

Previously resolved entries follow.
* O=C(c1ccccc1-c1nc(-c2ccccc2)no1)N1CCCC1 | 600
* COc1ccc(-n2nnnc2SCC(=O)c2ccc(O)c(O)c2)cc1 | 344
* C=CCOC(=O)CCC(=O)Nc1cc(OC)nc(OC)n1 | 653
* C/C(Nc1cccc(F)c1)=C(/C#N)C(N)=O | 640
* COc1ccc(C(=O)N2CCN(c3nc4cc(C)ccc4cc3C#N)CC2)c(OC)c1 | 383
* CCOc1ccc(N(CC)C(=O)COc2cc(=O)n(C)c3ccccc23)cc1 | 622

Below are some molecules; for each one, tell me its cell count.
1. CCCC(=O)Nc1cc(C)c(NC(=O)c2ccccn2)cn1
2. Cc1ccc2c(c1)NC(=O)C(CC(=O)NC1CCCCC1C)O2 (stereo not drawn)

Result string:
1. 418
2. 611

----------
Provide the recorded nuclei count for the entries that follow.
Assay: reduction of polyQ htt aggregates in cells – imaging, exon1htt(103Q)mCFP cells, high-content imaging, primary screen (AID 483);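 also: compound exposure lasted 3 days before fixation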;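 as to nuclei count: percent of the per-plate median nuclei count of sample wells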
Conditions: exon1htt(103Q)mCFP cell line, aggregate imaging, at 2 µM; measured here: cell count, toxicity
Respond with a number, then the unit of measure.

Previously resolved entries follow.
• O=c1[nH]c(=O)n(C2CCCCCC2)c(O)c1C=NCc1ccc(F)cc1 = 109%
• COc1ccc(C2/C(=C(/O)c3ccccc3)C(=O)C(=O)N2C)cc1 (stereo unspecified) = 106%
• CC(C)[C@H](NC(=O)NC1CCCC1)C(=O)O = 87.5%
• COc1cccc(-c2nnc(NC(C)=O)o2)c1 = 99.5%
• CCN(CC)S(=O)(=O)c1ccc(NC(=O)CN(c2cccc(F)c2)S(C)(=O)=O)cc1 = 107%
• CCOC(=O)C1CN(S(=O)(=O)c2ccc(C)cc2)CCN1S(=O)(=O)c1ccc(C)cc1 (stereo unspecified) = 117%
• O=C(NCc1cccs1)C1CCCN(c2ncccn2)C1 (stereo unspecified) = 96.8%
• Cc1cccc(NC(=O)Cn2c(=O)n(C)c3ccccc32)c1 = 107%

Below are some molecules; for each one, tell me its nuclei count.
1. O=C(NCCOC(=O)C1COc2ccccc2O1)C1COc2ccccc2O1 (stereo unspecified)
2. Cc1c(C)[n+](=O)c2c(n1[O-])CCCCC2
3. O=C(O)C1C2CCC(O2)C1C(=O)NCCC1=CCCCC1 (stereo unspecified)
4. CCOC(=O)N1CCC(NC(=O)CCN2C(=O)COc3ccccc32)CC1
5. CCOC(=O)/C(C#N)=C(/C)c1ccc(OC)cc1

Result string:
["106%", "81.3%", "105%", "106%", "120%"]
